- Test system: test plant species
- Assay summary: Post-emergent herbicidal activity test (greenhouse, foliar spray, visual growth reduction)
- Assay type: in vivo
- Stated conditions: post-emergence, 336 h, SORVU: grain sorghum (Sorghum vulgare), 140 g ai/ha, 14 days after application, read-out: Visual Growth Reduction (%) 14 Days After Application, SORVU
Listing of entries alongside the reported pest or weed control at 140 g/ha.

Compound: COC(=O)c1nc(-c2ccc3c(c2C)OC(F)(F)O3)c(F)cc1Cl [F233]
Target: test plant species
pest or weed control at 140 g/ha: 85 to 94%
--
Compound: COC(=O)c1nc(-c2cc(F)c3c(c2)OC(F)(F)O3)ccc1Cl [F367]
Target: test plant species
pest or weed control at 140 g/ha: 0 to 29%
--
Compound: COC(=O)c1nc(-c2cc(C#N)c(C(F)(F)F)cc2Cl)c(F)cc1Cl [F321]
Target: test plant species
pest or weed control at 140 g/ha: 95 to 100%
--
Compound: O=C(O)c1nc(-c2cc3c(cc2Cl)OCO3)c(F)cc1Cl [F196]
Target: test plant species
pest or weed control at 140 g/ha: 45 to 59%
--
Compound: COC(=O)c1nc(-c2ccc(C3(C#N)CC3)cc2Cl)c(F)cc1Cl [F237]
Target: test plant species
pest or weed control at 140 g/ha: 85 to 94%
--
Compound: COC(=O)c1nc(-c2ccc3c(c2F)OCO3)ccc1Cl [F85]
Target: test plant species
pest or weed control at 140 g/ha: 0 to 29%
--
Compound: COC(=O)c1nc(-c2ccc(C(F)(F)F)c(S(C)(=O)=O)c2Cl)ccc1Cl [F139]
Target: test plant species
pest or weed control at 140 g/ha: 0 to 29%
--
Compound: COC(=O)c1nc(-c2c(Cl)cccc2OC)c(F)cc1Cl [F301]
Target: test plant species
pest or weed control at 140 g/ha: 0 to 29%
--
Compound: COC(=O)c1nc(-c2ccc(C(F)(F)F)cc2OC)c(F)cc1F [F377]
Target: test plant species
pest or weed control at 140 g/ha: 85 to 94%
--
Compound: COC(=O)c1nc(-c2ccc(C(F)(F)F)nc2)c(O)cc1Cl [F87]
Target: test plant species
pest or weed control at 140 g/ha: 0 to 29%

###

pest or weed control at 140 g/ha listing for selected molecules.
- System: test plant species
- Assay summary: Post-emergent herbicidal activity test (greenhouse, foliar spray, visual growth reduction)
- Type: in vivo
- Stated conditions: post-emergence, 336 h, DIGSA: crabgrass (Digitaria sanguinalis), 140 g ai/ha, 14 days after application, read-out: Visual Growth Reduction (%) 14 Days After Application, DIGSA
- Description: Post-emergent Test: Seeds or nutlets of the desired test plant species were planted in Sun Gro Metro-Mix® 360 planting mixture, which typically has a pH of 6.0 to 6.8 and an organic matter content of about 30 percent, in plastic pots with a surface area of 64 square centimeters. In some aspects, to ensure good germination and healthy plants, a fungicide treatment and/or other chemical or physical treatment was applied. […]
Attribute measured: pest or weed control at 140 g/ha

Molecule: COC(=O)c1nc(-c2ccc(Cl)c(OC)c2F)ncc1Cl [F115]
Attribute measured: pest or weed control at 140 g/ha
Endpoint result: 0 to 29%

Molecule: COC(=O)c1nc(-c2ccc(SC(F)(F)F)cc2Cl)c(F)cc1Cl [F135]
Attribute measured: pest or weed control at 140 g/ha
Endpoint result: 95 to 100%

Molecule: COC(=O)c1nc(-c2ccc3c(c2)OC(F)(F)O3)ccc1Cl [F64]
Attribute measured: pest or weed control at 140 g/ha
Endpoint result: 85 to 94%

Molecule: COC(=O)c1nc(-c2ccc(Cl)cc2)ccc1Cl [F82]
Attribute measured: pest or weed control at 140 g/ha
Endpoint result: 0 to 29%

Molecule: COC(=O)c1nc(-c2ccc(C(F)(F)F)cc2C)c(F)cc1Cl [F170]
Attribute measured: pest or weed control at 140 g/ha
Endpoint result: 85 to 94%

Molecule: COC(=O)c1nc(-c2ccc(OC(F)(F)F)cc2Cl)ccc1Cl [F58]
Attribute measured: pest or weed control at 140 g/ha
Endpoint result: 85 to 94%

Molecule: COC(=O)c1nc(-c2ccc(C(F)(F)F)cc2Cl)ccc1C(F)(F)F [F9]
Attribute measured: pest or weed control at 140 g/ha
Endpoint result: 0 to 29%

Molecule: COC(=O)c1nc(-c2ccc3[nH]ccc3c2)c(F)cc1Cl [F189]
Attribute measured: pest or weed control at 140 g/ha
Endpoint result: 0 to 29%

Molecule: COC(=O)c1nc(-c2cc3c(cc2F)OC(F)(F)O3)c(F)cc1Cl [F173]
Attribute measured: pest or weed control at 140 g/ha
Endpoint result: 95 to 100%

Molecule: COC(=O)c1nc(-c2ccc(C(F)(F)F)c([S+](C)[O-])c2Cl)ccc1Cl (stereo not drawn) [F119]
Attribute measured: pest or weed control at 140 g/ha
Endpoint result: 0 to 29%

Molecule: COC(=O)c1nc(-c2ccc(C(F)(F)F)cc2Cl)ccc1F [F113]
Attribute measured: pest or weed control at 140 g/ha
Endpoint result: 85 to 94%

Molecule: O=C(O)c1nc(-c2ccc(C(F)(F)F)nc2Cl)ccc1Cl [F192]
Attribute measured: pest or weed control at 140 g/ha
Endpoint result: 85 to 94%

Molecule: O=C(O)c1nc(-c2ccc(Cl)c(F)c2F)ccc1Cl [F70]
Attribute measured: pest or weed control at 140 g/ha
Endpoint result: 60 to 74%

Molecule: COC(=O)c1nc(-c2cc3c(cc2Cl)OCO3)c(Cl)cc1Cl [F155]
Attribute measured: pest or weed control at 140 g/ha
Endpoint result: 0 to 29%

Molecule: COC(=O)c1nc(-c2ccc(C(F)(F)F)cc2Cl)ccc1C [F53]
Attribute measured: pest or weed control at 140 g/ha
Endpoint result: 95 to 100%

Molecule: COC(=O)c1nc(-c2ccc(C(F)(F)F)cc2C#N)ccc1Cl [F24]
Attribute measured: pest or weed control at 140 g/ha
Endpoint result: 85 to 94%

Molecule: O=C(OCc1ccccn1)c1nc(-c2ccc(C(F)(F)F)cc2Cl)ccc1Cl [F54]
Attribute measured: pest or weed control at 140 g/ha
Endpoint result: 0 to 29%

Molecule: COc1c(Cl)ccc(-c2ccc(Cl)c(C(=O)O)n2)c1F [F78]
Attribute measured: pest or weed control at 140 g/ha
Endpoint result: 0 to 29%

Molecule: C#CCOC(=O)c1nc(-c2ccc(C(F)(F)F)cc2Cl)ccc1Cl [F45]
Attribute measured: pest or weed control at 140 g/ha
Endpoint result: 95 to 100%

Molecule: COC(=O)c1nc(-c2ccc(Cl)c(OC)c2F)cc(Cl)c1Cl [F76]
Attribute measured: pest or weed control at 140 g/ha
Endpoint result: 0 to 29%

Molecule: COC(=O)c1nc(-c2ccc(C(F)(F)F)nc2Cl)ccc1Cl [F8]
Attribute measured: pest or weed control at 140 g/ha
Endpoint result: 60 to 74%

Molecule: COC(=O)c1nc(-c2ccc(OS(C)(=O)=O)cc2)c(F)cc1Cl [F159]
Attribute measured: pest or weed control at 140 g/ha
Endpoint result: 60 to 74%

Molecule: O=C(O)c1nc(-c2ccc(C(F)(F)F)cc2Cl)ccc1Cl [F61]
Attribute measured: pest or weed control at 140 g/ha
Endpoint result: 95 to 100%

Molecule: COC(=O)c1nc(-c2cc(Br)c(C(F)(F)F)cc2Cl)ccc1Cl [F151]
Attribute measured: pest or weed control at 140 g/ha
Endpoint result: 0 to 29%

Molecule: COC(=O)c1nc(-c2ccc(C#N)c(Cl)c2)ccc1Cl [F125]
Attribute measured: pest or weed control at 140 g/ha
Endpoint result: 0 to 29%

Molecule: COC(=O)c1nc(-c2ncc(C(F)(F)F)cc2Cl)ccc1Cl [F101]
Attribute measured: pest or weed control at 140 g/ha
Endpoint result: 95 to 100%

Molecule: COC(=O)c1nc(-c2cc(C(F)(F)F)ccc2Cl)ccc1Cl [F38]
Attribute measured: pest or weed control at 140 g/ha
Endpoint result: 0 to 29%

Molecule: COC(=O)c1nc(-c2cc(Cl)cnc2OC)ccc1Cl [F129]
Attribute measured: pest or weed control at 140 g/ha
Endpoint result: 0 to 29%

Molecule: COC(=O)c1nc(-c2ccc(-c3ccc(F)cc3)cc2Cl)ccc1Cl [F25]
Attribute measured: pest or weed control at 140 g/ha
Endpoint result: 0 to 29%

Molecule: O=C(O)c1nc(-c2ccc(C(F)(F)F)cc2)c(Cl)cc1Cl [F96]
Attribute measured: pest or weed control at 140 g/ha
Endpoint result: 0 to 29%

Molecule: COC(=O)c1nc(-c2ncc(Cl)c(C(F)F)c2Cl)ccc1Cl [F184]
Attribute measured: pest or weed control at 140 g/ha
Endpoint result: 60 to 74%

Molecule: COC(=O)c1nc(-c2ccc(C(F)(F)F)c(F)c2F)ccc1Cl [F110]
Attribute measured: pest or weed control at 140 g/ha
Endpoint result: 0 to 29%

Molecule: COC(=O)c1nc(-c2c(Cl)cc(C(F)(F)F)cc2S(C)(=O)=O)ccc1Cl [F138]
Attribute measured: pest or weed control at 140 g/ha
Endpoint result: 0 to 29%

Molecule: COC(=O)c1nc(-c2ccc(Br)cc2Cl)ccc1Cl [F27]
Attribute measured: pest or weed control at 140 g/ha
Endpoint result: 60 to 74%

Molecule: COC(=O)c1nc(-c2ccc(C(F)(F)F)cc2Cl)c(F)cc1Cl [F107]
Attribute measured: pest or weed control at 140 g/ha
Endpoint result: 95 to 100%

Molecule: COC(=O)c1nc(-c2cc3c(cc2F)OC(F)(F)O3)c(Cl)cc1Cl [F174]
Attribute measured: pest or weed control at 140 g/ha
Endpoint result: 85 to 94%

Molecule: COC(=O)c1nc(-c2ccc(OC(F)F)cc2Cl)ccc1Cl [F157]
Attribute measured: pest or weed control at 140 g/ha
Endpoint result: 85 to 94%

Molecule: CCN(CC)c1c(Cl)ccc(-c2ccc(Cl)c(C(=O)OC)n2)c1F [F171]
Attribute measured: pest or weed control at 140 g/ha
Endpoint result: 0 to 29%

Molecule: COC(=O)c1nc(-c2ccc(C3CC3)cc2Cl)ccc1Cl [F15]
Attribute measured: pest or weed control at 140 g/ha
Endpoint result: 0 to 29%

Molecule: COC(=O)c1nc(-c2ccc(S(C)(=O)=O)cc2)c(F)cc1Cl [F169]
Attribute measured: pest or weed control at 140 g/ha
Endpoint result: 30 to 44%

Molecule: COC(=O)c1nc(-c2cc(F)c(Cl)cc2Cl)ccc1Cl [F65]
Attribute measured: pest or weed control at 140 g/ha
Endpoint result: 95 to 100%

Molecule: COC(=O)c1nc(-c2ncc(Cl)cc2Cl)ccc1Cl [F191]
Attribute measured: pest or weed control at 140 g/ha
Endpoint result: 85 to 94%
